Hello, the source for this data is ChEMBL document CHEMBL4265881, in case you need it.

# targetDesc: 3',5'-cyclic-AMP phosphodiesterase 4D (Homo sapiens, UniProt Q08499)
# Sequence (Q08499 whole entry): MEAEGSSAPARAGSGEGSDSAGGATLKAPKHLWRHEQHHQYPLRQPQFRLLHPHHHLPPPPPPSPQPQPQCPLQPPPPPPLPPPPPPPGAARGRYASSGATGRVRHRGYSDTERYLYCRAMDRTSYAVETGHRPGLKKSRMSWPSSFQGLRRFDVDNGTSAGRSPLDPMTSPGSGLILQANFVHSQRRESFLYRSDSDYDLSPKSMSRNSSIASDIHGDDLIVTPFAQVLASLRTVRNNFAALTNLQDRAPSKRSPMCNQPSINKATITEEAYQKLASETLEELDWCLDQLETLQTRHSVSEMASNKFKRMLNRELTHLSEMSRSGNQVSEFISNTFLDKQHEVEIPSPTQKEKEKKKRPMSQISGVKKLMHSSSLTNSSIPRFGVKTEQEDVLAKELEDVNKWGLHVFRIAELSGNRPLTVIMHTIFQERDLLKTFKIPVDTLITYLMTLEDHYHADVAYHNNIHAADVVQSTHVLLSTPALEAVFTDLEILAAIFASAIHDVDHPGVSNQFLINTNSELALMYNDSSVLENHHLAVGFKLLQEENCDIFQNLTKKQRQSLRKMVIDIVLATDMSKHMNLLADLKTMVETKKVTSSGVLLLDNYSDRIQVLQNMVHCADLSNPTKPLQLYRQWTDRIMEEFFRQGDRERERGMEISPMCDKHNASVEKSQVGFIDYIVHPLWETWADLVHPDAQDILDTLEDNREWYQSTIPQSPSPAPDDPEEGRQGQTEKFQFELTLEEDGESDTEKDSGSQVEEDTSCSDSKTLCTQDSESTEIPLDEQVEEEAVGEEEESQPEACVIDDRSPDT
endpointLabel: pIC50
Formally, pIC50 is defined as -log10 of the concentration c, with c in mol/L.

Q: Recorded pIC50 of Cc1cc(C)n(C(=O)c2ccc(-c3ccc([N+](=O)[O-])cc3)o2)n1 , please.
A: 4.06

----------
Quick record: pIC50, 3',5'-cyclic-AMP phosphodiesterase 4B (Homo sapiens, UniProt Q07343).
Formally, pIC50 is defined as -log10 of the concentration c, with c in mol/L.

Q: Recorded pIC50 of Cc1cc(C)n(C(=O)c2ccc(-c3ccccc3[N+](=O)[O-])o2)n1 , please.
A: 4.20

Q: Now this one: Cc1cc(C)n(C(=O)c2ccc(-c3cccc([N+](=O)[O-])c3)o2)n1
A: 4.44

Q: Now this one: Cc1cc(C)n(C(=O)c2ccc(-c3cccc(F)c3)o2)n1
A: 4.69

Q: Now this one: Cc1cc(C)n(C(=O)c2ccc(-c3ccccc3Cl)o2)n1
A: 4.28

Q: Now this one: Cc1cc(C)n(C(=O)c2ccc(-c3ccc(F)cc3F)o2)n1
A: 5.49

Q: Now this one: Cc1cc(C)n(C(=O)c2ccc(-c3ccc(Br)cc3)o2)n1
A: 4.29

Q: Now this one: Cc1ccc(-c2ccc(C(=O)n3nc(C)cc3C)o2)cc1
A: 5.08

Q: Now this one: Cc1cc(C)n(C(=O)c2ccc(-c3ccc(Cl)cc3)o2)n1
A: 5.41

Q: Now this one: Cc1cc(C)n(C(=O)c2ccc(-c3ccc(F)cc3)o2)n1
A: 5.14

Q: Now this one: COc1ccc(-c2ccc(C(=O)n3nc(C)cc3C)o2)cc1
A: 5.77

Q: Now this one: Cc1cc(C)n(C(=O)c2ccc(-c3ccccc3F)o2)n1
A: 4.34
